Reported Human Primary Hepatocyte Editing % 500 values follow for various molecules
# System: PCSK9 gene
# experiment_description: PCSK9 gRNA/SpCas9 editing in primary human hepatocytes (Tables 2, 4)
# Type: cell-based
# test_settings: 500 ng/RNA/mL; SpCas9 mRNA MS002 1:1 by weight
# Description: In set of experiments, PCSK9 gRNAs were co-transfected with an equivalent amount (1:1 ratio by weight) of in vitro transcribed commercially available SpCas9 mRNA MS002 purchased from TriLink Biotechnologies into primary human hepatocytes at 2500, 500, or 100 ng/RNA/mL and processed as described in detailed methods. Extracted genomic DNA was analyzed for gene editing at the target site with next-generation sequencing of PCR amplicons generated around the target sites. […]
m = 2'-O-methyl; r = 2'-OH (RNA)
Numbers only; they are read as %.

See these solved cases before continuing.
[[record]]
molecule = "GA168: PCSK9 gRNA; protospacer CTTGGCGCAGCGGTGGAAGG (SEQ ID NO: 162) (nucleic acid, sugars from the 5' end m3 r94 m3, linkages s3 o93 s3 (s phosphorothioate, o phosphodiester), T or U not given here) guide: CUUGGCGCAGCGGUGGAAGGGUUUUAGAGCUAGAAAUAGCAAGUUAAAAUAAGGCUAGUCCGUUAUCAACUUGAAAAAGUGGCACCGAGUCGGUGCUUUU"
u = "%"
test_result = 25.77

[[record]]
molecule = "GA198: PCSK9 gRNA; protospacer CCACCGGGAAATCGAGGGCA (SEQ ID NO: 192) (nucleic acid, sugars from the 5' end m3 r94 m3, linkages s3 o93 s3 (s phosphorothioate, o phosphodiester), T or U not given here) guide: CCACCGGGAAAUCGAGGGCAGUUUUAGAGCUAGAAAUAGCAAGUUAAAAUAAGGCUAGUCCGUUAUCAACUUGAAAAAGUGGCACCGAGUCGGUGCUUUU"
u = "%"
test_result = 10.58


## Task Human Primary Hepatocyte Editing % 500 lookup needed for GA225: PCSK9 gRNA; protospacer GGCATCGTCCCGGAAGTTGC (SEQ ID NO: 219) (nucleic acid, sugars from the 5' end m3 r94 m3, linkages s3 o93 s3 (s phosphorothioate, o phosphodiester), T or U not given here) guide: GGCAUCGUCCCGGAAGUUGCGUUUUAGAGCUAGAAAUAGCAAGUUAAAAUAAGGCUAGUCCGUUAUCAACUUGAAAAAGUGGCACCGAGUCGGUGCUUUU , thanks.
## Result 6.39
